Target: T1, HER2 expressed on the surface of cells (human, UniProt P04626 23-1255)
T1 construct: whole, on cells; also called ErbB2
Assay: flow cytometry on MCF7 cells (low HER2), n=1

Binder	Bmax (MFI)
Variant 12471 (antibody, human IgG1, kappa, name in Kabat numbering, V domains shown, Kabat numbering; also called v12471; FSA version of v9996) VH: EVQLVESGGGLVQPGGSLRLSCAASGFTFADYTMDWVRQAPGKGLEWVGDVNPNSGGSIYNQRFKGRFTFSVDRSKNTLYLQMNSLRAEDTAVYYCARNLGPSFYFDYWGQGTLVTVSS VL: DIQMTQSPSSLSASVGDRVTITCKASQDVSIGVAWYQQKPGKAPKLLIYSASYRYTGVPSRFSGSGSGTDFTLTISSLQPEDFATYYCQQYYIYPATFGQGTKVEIKR	570
Variant 14019 (antibody, name in Kabat numbering, V domains shown, also called v14019) VH: EVQLVESGGGLVQPGGSLRLSCAASGFTFQDYTMDWVRQAPGKGLEWVGDVNPNSGGSIYNQRFKGRFTFSVDRSWNTLYLQMNSLRAEDTAVYYCARNLGPSFYFDYWGQGTLVTVSS VL: DIQMTQSPSSLSASVGDRVTITCKASQDVSIGVAWYQQKPGKAPKLLIYSASYRYTGVPSRFSGSGSGTDFTLTISSLQPEDFATYYCQQYYIYPYTFGQGTKVEIKR	670
Variant 14021 (antibody, name in Kabat numbering, V domains shown, also called v14021) VH: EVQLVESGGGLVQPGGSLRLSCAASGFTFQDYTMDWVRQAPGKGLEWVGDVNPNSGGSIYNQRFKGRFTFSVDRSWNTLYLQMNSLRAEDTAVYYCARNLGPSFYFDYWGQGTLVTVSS VL: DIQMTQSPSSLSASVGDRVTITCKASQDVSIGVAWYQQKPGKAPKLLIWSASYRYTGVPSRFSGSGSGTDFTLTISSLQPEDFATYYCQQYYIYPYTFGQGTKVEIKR	610
Variant 14020 (antibody, name in Kabat numbering, V domains shown, also called v14020) VH: EVQLVESGGGLVQPGGSLRLSCAASGFTFQDYTMDWVRQAPGKGLEWVGDVNPNSGGSIYNQRFKGRFTFSVDRSKNTLYLQMNSLRAEDTAVYYCARNLGPWFYFDYWGQGTLVTVSS VL: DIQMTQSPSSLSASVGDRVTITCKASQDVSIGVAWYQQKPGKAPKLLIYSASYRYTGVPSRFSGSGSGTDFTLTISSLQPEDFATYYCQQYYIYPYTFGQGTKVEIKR	640
